- Test system: FGFR3 (Homo sapiens)
- Construct: FGFR3's cytoplasmic domain [436-806 (terminal) amino acids]; purchased Carna 08-135
- Sequence (P22607 436-806): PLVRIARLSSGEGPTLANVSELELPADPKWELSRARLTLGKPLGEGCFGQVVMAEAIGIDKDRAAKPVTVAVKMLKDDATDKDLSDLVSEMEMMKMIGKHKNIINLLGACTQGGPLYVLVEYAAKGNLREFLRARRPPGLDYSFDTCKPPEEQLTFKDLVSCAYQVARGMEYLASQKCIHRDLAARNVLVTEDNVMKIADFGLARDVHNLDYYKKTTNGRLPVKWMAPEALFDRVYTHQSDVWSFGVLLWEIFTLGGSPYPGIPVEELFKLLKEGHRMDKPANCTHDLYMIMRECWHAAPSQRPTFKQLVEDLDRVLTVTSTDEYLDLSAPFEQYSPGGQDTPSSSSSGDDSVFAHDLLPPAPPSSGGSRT
- Assay text: FGFR3 kinase activity inhibition assay (LanthaScreen TR-FRET)
- Type: biochemical
- Measurement conditions: FGFR3 kinase, TR-FRET; read-out: IC50 (nM) FGFR3
The entries below come with measured IC50 values attached.

CC(Oc1ccc2[nH]nc(-c3cnn(C)c3)c2c1)c1nccn2nccc12 (stereo not shown) [Example 176]
1 to 10 nM

Fill in: FGFR3 (Homo sapiens) IC50 for Cc1cc(C(C)Oc2ccc3[nH]nc(-c4cnn(C5CN(C(=O)CO)C5)c4)c3c2)c2cccnc2c1 (stereo not shown) [Example 192] = < 1 nM

Fill in: FGFR3 (Homo sapiens) IC50 for CC(Oc1ccc2[nH]nc(-c3cnn(C)c3)c2c1)c1cc(C2CC2)cc2nccnc12 (stereo not shown) [Example 139] = 1 to 10 nM

Fill in: FGFR3 (Homo sapiens) IC50 for CC(Oc1ccc2[nH]nc(-c3cnn(C4CN(C(N)=O)C4)c3)c2c1)c1cc(Cl)cc2nccnc12 (stereo not shown) [Example 169] = 1 to 10 nM

====

- Test system: Ba/F3-FGFR3-BAIAP2L1 cells
- Assay text: Inhibition of proliferation activity of Ba/F3-FGFR3-BAIAP2L1 cells (CellTiter-Glo)
- Assay type: cell-based
- Measurement conditions: ratio of IC50 Ba/F3-BCR-FGFR1 to IC50 Ba/F3-FGFR3-BAIAP2L1
Measured metric: Selectivity (X) FGFR1/FGFR3
The response must be a number in X with no trailing unit.

CC(Oc1ccc2[nH]nc(-c3cnn(C)c3)c2c1)c1nc(C(F)F)cc2nccnc12 (centres unmarked)
182
COCC(=O)N1CC(n2cc(-c3n[nH]c4ccc(OC(C)c5cccc6nccnc56)cc34)cn2)C1 (centres unmarked)
91
CC(Oc1ccc2[nH]nc(-c3cnn(C4CN(C(=O)C(C)(C)O)C4)c3)c2c1)c1cccc2nccnc12 (centres unmarked)
113
Cc1cc2nccnc2c(C(C)Oc2ccc3[nH]nc(-c4cnn(C)c4)c3c2)n1 (centres unmarked)
139
CC(Oc1ccc2[nH]nc(-c3cnn(C)c3)c2c1)c1cccc2nccnc12 (centres unmarked)
35
C[C@@H](Oc1ccc2[nH]nc(-c3cnn(C)c3)c2n1)c1c(Cl)cncc1Cl
127
CC(Oc1ccc2[nH]nc(-c3cnn(C)c3)c2c1)c1cccn2ncnc12 (centres unmarked)
23

Given item CC(Oc1ccc2[nH]nc(-c3cnn(C)c3)c2c1)c1c(C(F)F)ccc2ncccc12 (centres unmarked) , the value recorded as its Selectivity (X) FGFR1/FGFR3 is 195

====

- Test system: FGFR1 (Homo sapiens, UniProt P11362)
- Construct: cytoplasmic domain [398-822 (terminal) amino acids]; purchased Carna 08-133
- Sequence (P11362 398-822): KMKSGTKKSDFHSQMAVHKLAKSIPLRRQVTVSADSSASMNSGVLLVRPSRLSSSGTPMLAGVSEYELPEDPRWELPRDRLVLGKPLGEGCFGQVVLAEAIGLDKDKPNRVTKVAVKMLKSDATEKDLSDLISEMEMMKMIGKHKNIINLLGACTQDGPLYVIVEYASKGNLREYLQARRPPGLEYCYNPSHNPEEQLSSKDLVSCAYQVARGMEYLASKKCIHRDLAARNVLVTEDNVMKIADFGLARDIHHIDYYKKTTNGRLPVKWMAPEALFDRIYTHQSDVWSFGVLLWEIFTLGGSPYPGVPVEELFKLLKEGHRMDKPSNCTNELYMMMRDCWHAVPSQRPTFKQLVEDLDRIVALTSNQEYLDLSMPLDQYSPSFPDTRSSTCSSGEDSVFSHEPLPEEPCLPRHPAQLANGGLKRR
- Assay text: FGFR1 kinase activity inhibition assay (LanthaScreen TR-FRET)
- Assay type: biochemical
pIC50: −log10 of the molar value.
The entries below come with measured pIC50 values attached.

Given item C[C@@H](Oc1ccc2[nH]nc(-c3cnn(Cc4cccnc4)c3)c2n1)c1c(Cl)cncc1Cl , the value recorded as its pIC50 is 8.00 to 9.00

Given item COCCn1cc(-c2n[nH]c3ccc(O[C@H](C)c4c(Cl)cncc4Cl)nc23)cn1 , the value recorded as its pIC50 is 7.00 to 8.00

Given item COCCOCCn1cc(-c2n[nH]c3c(F)cc(O[C@H](C)c4c(Cl)cncc4Cl)cc23)cn1 , the value recorded as its pIC50 is < 7.00

Given item CC(Oc1ccc2[nH]nc(-c3cnn(C4CN(C(=O)CN)C4)c3)c2c1)c1cccc2nccnc12 (stereo not shown) , the value recorded as its pIC50 is 8.00 to 9.00
